# System: Pasteurella multocida pm002
# experiment-summary: MIC broth microdilution, P. multocida pm002 (wild type)
# Assay type: cell-based
Consider the following molecules; for each one, report its MIC (μg/ml) Broth microdilution.

State the recorded MIC (μg/ml) Broth microdilution for every item in the following list.
1. CC(N)C(=O)N(C)C(C)C(NC(=O)C(CC1CCCCC1)NC(=O)NC(Cc1c[nH]c2ccccc12)C(=O)O)C(=O)NCC1CC(O)C(n2ccc(=O)[nH]c2=O)O1 (stereo not drawn)
2. CC(N)C(=O)N(C)C(C)C(NC(=O)C(CCCCN)NC(=O)NC(Cc1c[nH]c2ccccc12)C(=O)O)C(=O)NCC1CC(O)C(n2ccc(=O)[nH]c2=O)O1 (stereo not drawn)
3. CC(N)C(=O)N(C)C(C)C(NC(=O)C(Cc1ccccc1)NC(=O)NC(Cc1ccc2ccccc2c1)C(=O)O)C(=O)NCC1CC(O)C(n2ccc(=O)[nH]c2=O)O1 (stereo not drawn)

stdout:
[">512 µg/mL", ">512 µg/mL", "256 µg/mL"]

* * *

Would you mind telling me the reported MIC (μg/ml) Broth microdilution of each entry?
# System: Escherichia Coli MC 4100
# experiment-summary: MIC broth microdilution, E. coli MC 4100 (wild type)
# Assay type: cell-based
# reported-conditions: E. coli MC 4100
One number for each entry, in µg/mL.

// worked examples, MIC (μg/ml) Broth microdilution included
molecule: C[C@H](N)C(=O)N(C)[C@@H](C)[C@H](NC(=O)[C@H](Cc1ccc(F)c(F)c1)NC(=O)N[C@@H](Cc1c[nH]c2ccccc12)C(=O)O)C(=O)NC[C@H]1C[C@@H](O)[C@H](n2ccc(=O)[nH]c2=O)O1
experimental-readout: MIC (μg/ml) Broth microdilution
reported-value: 256
--
molecule: C[C@@H]([C@H](NC(=O)[C@H](Cc1ccccc1)NC(=O)N[C@@H](Cc1ccc(O)cc1)C(=O)O)C(=O)NC[C@H]1C[C@@H](O)[C@H](n2ccc(=O)[nH]c2=O)O1)N(C)C(=O)[C@@H](N)COCc1ccccc1
experimental-readout: MIC (μg/ml) Broth microdilution
reported-value: 512
--
molecule: C[C@H](N)C(=O)N(C)[C@@H](C)[C@H](NC(=O)[C@H](Cc1ccccc1)NC(=O)N[C@@H](Cc1ccc(O)cc1)C(=O)O)C(=O)NC[C@H]1C[C@@H](O)[C@H](n2ccc(=O)[nH]c2=O)O1
experimental-readout: MIC (μg/ml) Broth microdilution
reported-value: 32
--
molecule: CC(N)C(=O)N(C)C(C)C(NC(=O)C(Cc1ccc(I)cc1)NC(=O)NC(Cc1ccc(O)cc1)C(=O)O)C(=O)NCC1CC(O)C(n2ccc(=O)[nH]c2=O)O1 (stereo not shown)
experimental-readout: MIC (μg/ml) Broth microdilution
reported-value: 128

Next up:
stdin: Note down MIC (μg/ml) Broth microdilution recorded for CC(N)C(=O)N(C)C(C)C(NC(=O)C(Cc1ccccc1)NC(=O)NC(Cc1c[nH]c2ccccc12)C(=O)O)C(=O)NCC1CC(O)C(n2ccc(=O)[nH]c2=O)O1 (stereo not shown)
stdout: 512

* * *

# Tested on: Pseudomonas aeruginosa PAM 1135
# experiment-summary: MIC broth microdilution, P. aeruginosa PAM 1135 (high level UPA resistance)
# Format: cell-based
# reported-conditions: P. aeruginosa PAM 1135 UPA1^r
experimental-readout: MIC (μg/ml) Broth microdilution

compound: CC(N)C(=O)N(C)C(C)C(NC(=O)C(Cc1ccc(F)cc1)NC(=O)NC(C(=O)O)c1ccccc1)C(=O)NCC1CC(O)C(n2ccc(=O)[nH]c2=O)O1 (mixture of isomers) [Compound 141]
reported-value: >512 µg/mL
//
compound: CC(N)C(=O)N(C)C(C)C(NC(=O)C(Cc1ccc(-c2ccccc2)cc1)NC(=O)NC(Cc1c[nH]c2ccccc12)C(=O)O)C(=O)NCC1CC(O)C(n2ccc(=O)[nH]c2=O)O1 (stereo not shown) [Compound 155]
reported-value: 512 µg/mL
//
compound: CC(C)CC(NC(=O)NC(Cc1ccc(O)cc1)C(=O)O)C(=O)NC(C(=O)NCC1CC(O)C(n2ccc(=O)[nH]c2=O)O1)C(C)N(C)C(=O)CN (stereo not shown) [Compound 120]
reported-value: >512 µg/mL

# map each compound to its MIC (μg/ml) Broth microdilution
1. CC(C(NC(=O)C(Cc1ccc(F)cc1)NC(=O)NC(Cc1c[nH]c2ccccc12)C(=O)O)C(=O)NCC1CC(O)C(n2ccc(=O)[nH]c2=O)O1)N(C)C(=O)C(N)Cc1ccccc1 (stereo not shown) [Compound 113]
2. CC(N)C(=O)N(C)C(C)C(NC(=O)C(CCCCN)NC(=O)NC(Cc1c[nH]c2ccccc12)C(=O)O)C(=O)NCC1CC(O)C(n2ccc(=O)[nH]c2=O)O1 (stereo not shown) [Compound 148]
3. CC(N)C(=O)N(C)C(C)C(NC(=O)C(Cc1ccc(F)cc1)NC(=O)NC(Cc1ccc(O)cc1)C(=O)O)C(=O)NCC1CC(O)C(n2ccc(=O)[nH]c2=O)O1 (stereo not shown) [Compound 157]
4. C[C@H](NC(=O)N[C@@H](Cc1c[nH]c2ccccc12)C(=O)O)C(=O)N[C@H](C(=O)NC[C@H]1C[C@@H](O)[C@H](n2ccc(=O)[nH]c2=O)O1)[C@H](C)N(C)C(=O)[C@@H](C)N [Compound 171]
5. CC(C(NC(=O)C(Cc1ccc(F)cc1)NC(=O)NC(Cc1c[nH]c2ccccc12)C(=O)O)C(=O)NCC1CC(O)C(n2ccc(=O)[nH]c2=O)O1)N(C)C(=O)CN (stereo not shown) [Compound 116]
6. CC(C(NC(=O)C(Cc1ccccc1)NC(=O)NC(Cc1c[nH]c2ccccc12)C(=O)O)C(=O)NCC1CC(O)C(n2ccc(=O)[nH]c2=O)O1)N(C)C(=O)C(N)Cc1ccccc1 (stereo not shown) [Compound 156]

stdout:
1: >512 µg/mL; 2: >512 µg/mL; 3: >512 µg/mL; 4: >512 µg/mL; 5: >512 µg/mL; 6: 256 µg/mL

stdin: Supply measured MIC (μg/ml) Broth microdilution of C[C@@H]([C@H](NC(=O)[C@H](Cc1ccccc1)NC(=O)N[C@@H](Cc1ccc(O)cc1)C(=O)O)C(=O)NC[C@H]1C[C@@H](O)[C@H](n2ccc(=O)[nH]c2=O)O1)N(C)C(=O)[C@@H](N)COCc1ccccc1 [Compound 150] in your reply.
stdout: 256 µg/mL

* * *

Give MIC (μg/ml) Broth microdilution for every item shown.
# System: Escherichia Coli MC 4100
# experiment-summary: MIC broth microdilution, E. coli MC 4100 (wild type)
# Format: cell-based
# reported-conditions: E. coli MC 4100
Answers are plain numbers, in µg/mL.

For every record below, what is its MIC (μg/ml) Broth microdilution?
1. CC(N)C(=O)N(C)C(C)C(NC(=O)C(CCc1ccccc1)NC(=O)NC(Cc1ccc(O)cc1)C(=O)O)C(=O)NCC1CC(O)C(n2ccc(=O)[nH]c2=O)O1 (centres unmarked)
2. C[C@H](N)C(=O)N(C)[C@@H](C)[C@H](NC(=O)[C@H](Cc1ccccc1)NC(=O)N[C@@H](Cc1c[nH]cn1)C(=O)O)C(=O)NC[C@H]1C[C@@H](O)[C@H](n2ccc(=O)[nH]c2=O)O1
3. CC(C)CC(N)C(=O)N(C)C(C)C(NC(=O)C(CC(C)C)NC(=O)NC(Cc1c[nH]c2ccccc12)C(=O)O)C(=O)NCC1CC(O)C(n2ccc(=O)[nH]c2=O)O1 (centres unmarked)

stdout:
[512, 512, 256]

* * *

# System: Pseudomonas aeruginosa PAM 1135
# experiment-summary: MIC broth microdilution, P. aeruginosa PAM 1135 (high level UPA resistance)
# Type: cell-based
# reported-conditions: P. aeruginosa PAM 1135 UPA1^r
experimental-readout: MIC (μg/ml) Broth microdilution

molecule: CC(N)C(=O)N(C)C(C)C(NC(=O)C(CC1CCCCC1)NC(=O)NC(Cc1c[nH]c2ccccc12)C(=O)O)C(=O)NCC1CC(O)C(n2ccc(=O)[nH]c2=O)O1 (centres unmarked)
MIC (μg/ml) Broth microdilution: >512 µg/mL
--
molecule: CC(N)C(=O)N(C)C(C)C(NC(=O)C(Cc1cccs1)NC(=O)NC(Cc1ccc(O)cc1)C(=O)O)C(=O)NCC1CC(O)C(n2ccc(=O)[nH]c2=O)O1 (centres unmarked)
MIC (μg/ml) Broth microdilution: >512 µg/mL
--
molecule: CSCCC(NC(=O)NC(Cc1ccc(O)cc1)C(=O)O)C(=O)NC(C(=O)NCC1CC(O)C(n2ccc(=O)[nH]c2=O)O1)C(C)N(C)C(=O)CN (centres unmarked)
MIC (μg/ml) Broth microdilution: >512 µg/mL
--
molecule: C[C@H](N)C(=O)N(C)[C@@H](C)[C@H](NC(=O)[C@H](Cc1ccc(F)c(F)c1)NC(=O)N[C@@H](Cc1c[nH]c2ccccc12)C(=O)O)C(=O)NC[C@H]1C[C@@H](O)[C@H](n2ccc(=O)[nH]c2=O)O1
MIC (μg/ml) Broth microdilution: >512 µg/mL

API: the following record is the query input.
stdin: Please respond with reported MIC (μg/ml) Broth microdilution (system Pseudomonas aeruginosa PAM 1135) for CSCCC(NC(=O)NC(Cc1c[nH]c2ccccc12)C(=O)O)C(=O)NC(C(=O)NCC1CC(O)C(n2ccc(=O)[nH]c2=O)O1)C(C)N(C)C(=O)C(N)Cc1ccccc1 (centres unmarked) .
stdout: 256 µg/mL
